B1: CPEB3 Ribozyme (parent)
chain: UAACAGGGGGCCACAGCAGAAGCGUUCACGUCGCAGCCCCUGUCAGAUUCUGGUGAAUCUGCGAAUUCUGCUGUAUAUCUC

Variants of: B1
Assay: self-cleavage, relative activity (ratio to wild type); higher = more cleavage; in vitro, sequencing
Criterion met means recorded self-cleavage is 0.2 or above; Criterion not met means it is below 0.2.

1) U1C A21C: Criterion met
2) G33A U67A: Criterion not met
3) C11G A75U: Criterion met
4) A13G U76G: Criterion met
5) A3G U76A: Criterion met
6) C34U U72C: Criterion met
7) C23U U58A: Criterion met
8) U58G G63A: Criterion met
9) G30U A57U: Criterion not met
10) C50A C71G: Criterion not met
11) G24A A56G: Criterion not met
12) U66C C71U: Criterion met
13) A21G U58A: Criterion met
14) A3U U78C: Criterion met
15) A2G C59G: Criterion met
16) G33A U43A: Criterion met
17) C44A U69C: Criterion not met
18) G24A G61C: Criterion not met
19) U48C U69C: Criterion met
20) G6A G9A: Criterion met
21) G10A A15G: Criterion met
22) G55A A64G: Criterion met
